Sourced from paper PMC5540273

System: CTK
Construct: gene MATK
Conditions: concentration: 1 μM, replicates: in singlicate; n = 1;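 further: KINOMEscan kinase panel screen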
MEASURED ATTRIBUTE: %Inh (%)
The reply should contain only the number, in %.

See these solved cases before continuing.
>>> measured_value("COC(=O)c1c(-c2ccccc2)c2cc(C)ccc2c(=O)n1Cc1ccccc1")
0
>>> measured_value("Cc1nn2c(=O)cc(N3CCOCC3)nc2n1Cc1cccc(Cl)c1Cl")
0
>>> measured_value("CCC(=O)c1c(-c2ccccc2)c2cc(Cl)ccc2c(=O)n1Cc1cc(S(C)(=O)=O)n(CC(F)F)n1")
0
>>> measured_value("Nc1ncnc2c1ncn2-c1ccc(Cl)cc1")
0
>>> measured_value("Cc1ccc(Oc2ccc(Nc3ncnc4cc[nH]c34)cc2C)cn1")
29
>>> measured_value("COc1cc(Nc2ccnc3ccc(C(F)(F)F)cc23)cc(OC)c1OC")
8

Exercise: Field request: %Inh | item: COc1cc(Nc2nccc(N3CCC(NC(=O)C4COc5ccccc5O4)C3)n2)cc(OC)c1OC (stereo not shown)
Key: 0

Exercise: Field request: %Inh | item: CCS(=O)c1ccc(-c2coc3ccc(-c4nnc(C)o4)cc23)cc1 (stereo not shown)
Key: 0

Exercise: Field request: %Inh | item: CCc1ccc(-c2ccc3c(c2)-c2nn(C)cc2S(=O)(=O)N3C)cc1
Key: 0

Exercise: Field request: %Inh | item: O=C(Nc1n[nH]c2nc(-c3ccccc3)c(Br)cc12)C1CC1
Key: 0

----------
Tested on: FAK
Construct: gene PTK2
Settings: concentration: 1 μM, replicates: in singlicate; n = 1
Each entry below carries its recorded %Inh.
The reply should contain only the number, in %.

See these solved cases before continuing.
>>> measured_value("Cc1nc(N(C)[C@H]2CN(C(=O)CC#N)CC[C@H]2C)c2cc[nH]c2n1")
0
>>> measured_value("COc1ccc(Nc2nccc(N3CCC(NS(=O)(=O)c4ccc(NC(C)=O)cc4)C3)n2)cc1 (centres unmarked)")
0
>>> measured_value("CCc1nc(-c2cccc(C)c2)c(-c2ccncc2)s1")
99.9
>>> measured_value("Cc1ccc(Oc2ccc(Nc3ncnc4cc[nH]c34)cc2C)cn1")
8

We next turn to a different molecule, shown below.
Exercise: Field request: %Inh | item: COc1cc(Nc2ccnc3ccc(C(F)(F)F)cc23)cc(OC)c1OC
Key: 0

----------
Test system: RSK1(Kin.Dom.2-C-terminal)
Construct: gene RPS6KA1
Conditions: concentration: 1 μM, replicates: in singlicate; n = 1
MEASURED ATTRIBUTE: %Inh (%)
The reply should contain only the number, in %.

See these solved cases before continuing.
>>> measured_value("O=C(Nc1n[nH]c2nc(-c3ccccc3)c(Br)cc12)C1CC1")
0
>>> measured_value("Cc1cccc(-c2nc(Nc3ccc4c(cnn4C)c3)c3ccccc3n2)n1")
0
>>> measured_value("CCS(=O)c1ccc(-c2coc3ccc(-c4nnc(C)o4)cc23)cc1 (stereo not shown)")
18
>>> measured_value("O=C(Nc1ccc2c(c1)OCO2)NC1CCN(c2ccnc(NCc3ccc(F)cc3)n2)CC1")
0
>>> measured_value("Nc1nc(-c2ccccc2F)c(-c2ccnc3ccccc23)s1")
35

We next turn to a different molecule, shown below.
Exercise: Field request: %Inh | item: Cc1c(Cn2c(C)nn3c(=O)cc(N4CCO[C@H](C)C4)nc23)cccc1C(F)(F)F
Key: 0
